# assaySystem: T1, rat PrRP receptor in RC-4B/C cells (rat, UniProt Q64121 1-370)
# T1 construct: whole, on cells; also called the rat receptor; GPR10
# T1 sequence (looked up): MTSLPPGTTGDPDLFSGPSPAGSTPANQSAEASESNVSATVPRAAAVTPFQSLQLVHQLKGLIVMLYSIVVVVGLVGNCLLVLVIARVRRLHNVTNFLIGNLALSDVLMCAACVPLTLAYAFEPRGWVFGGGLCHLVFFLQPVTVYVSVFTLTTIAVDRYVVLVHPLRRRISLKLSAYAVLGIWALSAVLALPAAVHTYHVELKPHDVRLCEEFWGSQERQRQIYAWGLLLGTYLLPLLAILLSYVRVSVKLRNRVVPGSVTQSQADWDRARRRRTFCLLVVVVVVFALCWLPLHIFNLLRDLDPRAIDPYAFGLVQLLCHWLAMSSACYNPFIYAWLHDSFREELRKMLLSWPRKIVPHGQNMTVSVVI
# protocol: competition with 125I-rat PrRP31 on RC-4B/C cells
Where no end group is shown, it is not given here. [ ]: non-standard residue; d: D form. The star is where a group is joined. Phe(F5) = N[C@@H](Cc1c(F)c(F)c(F)c(F)c1F)C(=O)O; Palmitoyl = CCCCCCCCCCCCCCCC(=O)*; PheNO2 = nitrophenylalanine; Nle = CCCC[C@H](N)C(=O)O
Let's look at some binders and their measured Ki.

Reference set, count: 3
Palmitoyl-SRAHQHS[Nle]ETRTPDINPAWYTGRGIRPVGR[Phe(F5)]-NH2 [analog no. 33] : 0.00051 µM
SRAHQHS[Nle]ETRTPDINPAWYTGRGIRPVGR[PheNO2]-NH2 [analog no. 27] : 0.0199 µM
Palmitoyl-SRTHRHSMEIRTPDINPAWYASRGIRPVGRF-NH2 [analog no. 57] : 0.00028 µM

Continue with the next binder.
According to the records, this binder TPDINPAWYTGRGARPFGRF-NH2 [analog no. 42] displays Ki of 0.655 µM

Hello, the source for this data is patent US9937235B2, in case you need it.
